# Test system: Staphylococcus aureus FDA-209P
# Measurement Notes: antimicrobial activity, broth dilution method
# Assay type: cell-based
# Measurement Parameters: Staphylococcus aureus, FDA209P, Staphylococcus aureus FDA-209P; broth dilution; read-out: minimum inhibitory concentration (MIC)
# Description: Antimicrobial activity of the new antibiotics according to the present invention was measured on various pathogenic microorganisms by the broth dilution mehtod. Tab. […] The new antibiotics show a similar antimicrobial spectrum to that of tylosin as shown in Tab. 4. All the compounds have an excellent antimicrobial activity mainly on gram-positive bacteria. […] Test microorganisms with an asterisk mark (*) in Tab. 4 are all drug-resistant strains that were clinically isolated. […]
// reported MIC per item
Numeric only. Scale: µg/mL

Any idea what MIC was measured for CCC1OC(=O)CC(O)C(C)C(OC2OC(C)C(OC3CC(C)(O)C(OC(=O)CSc4ccccc4)C(C)O3)C(N(C)C)C2O)C(CC=O)CC(C)C(=O)C=CC(C)=CC1COC1OC(C)C(O)C(OC)C1OC (centres unmarked) ?
0.39

Dear colleague, I am looking for the recorded MIC of the following compound: CCC1OC(=O)CC(O)C(C)C(OC2OC(C)C(OC3CC(C)(O)C(OC(=O)Cc4ccc([N+](=O)[O-])cc4)C(C)O3)C(N(C)C)C2O)C(CC=O)CC(C)C(=O)C=CC(C)=CC1COC1OC(C)C(O)C(OC)C1OC (centres unmarked)
0.39

Reference source for all entries: patent US4205163A
